Reference source: patent US20250084078A1

- EXPERIMENTAL TARGET: HPK1 (Homo sapiens)
- TEST DESCRIPTION: SLP76 phosphorylation assay (intracellular HPK1 inhibitory activity, p-SLP76 S376 ELISA in Jurkat cells)
- STATED CONDITIONS: p-SLP76 IC50, Jurkat, Clone E6-1 cells; 1 h compound pre-incubation; anti-CD3 beads stimulation 20 min; Phospho-SLP-76 (Ser376) ELISA
- Sequence (Q92918 whole entry): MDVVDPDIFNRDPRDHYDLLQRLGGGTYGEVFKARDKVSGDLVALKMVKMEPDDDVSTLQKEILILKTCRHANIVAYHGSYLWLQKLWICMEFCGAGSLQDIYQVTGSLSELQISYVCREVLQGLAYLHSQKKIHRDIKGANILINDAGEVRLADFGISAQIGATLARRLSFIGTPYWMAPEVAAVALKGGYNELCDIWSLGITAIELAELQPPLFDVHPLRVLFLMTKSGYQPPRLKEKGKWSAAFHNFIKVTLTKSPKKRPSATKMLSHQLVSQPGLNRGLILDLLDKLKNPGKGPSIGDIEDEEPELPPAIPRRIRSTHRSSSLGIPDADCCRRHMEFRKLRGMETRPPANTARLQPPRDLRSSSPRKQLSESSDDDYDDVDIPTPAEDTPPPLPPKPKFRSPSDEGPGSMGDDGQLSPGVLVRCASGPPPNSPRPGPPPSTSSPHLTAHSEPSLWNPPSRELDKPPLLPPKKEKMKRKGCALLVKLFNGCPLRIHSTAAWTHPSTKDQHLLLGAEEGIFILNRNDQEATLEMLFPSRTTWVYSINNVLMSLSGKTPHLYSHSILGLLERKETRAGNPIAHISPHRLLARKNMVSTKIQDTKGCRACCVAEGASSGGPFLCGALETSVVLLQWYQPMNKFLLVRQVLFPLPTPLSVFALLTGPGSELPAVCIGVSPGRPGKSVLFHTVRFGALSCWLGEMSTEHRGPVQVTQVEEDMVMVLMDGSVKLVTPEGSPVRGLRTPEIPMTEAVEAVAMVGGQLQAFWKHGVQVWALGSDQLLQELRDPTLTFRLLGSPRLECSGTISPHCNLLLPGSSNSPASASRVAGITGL
OBSERVED PROPERTY: IC50 (nM)

{"columns": ["MOLECULE", "EXPERIMENTAL TARGET", "ENDPOINT VALUE"],
 "data": [
  ["CC1(C)COCCN1C(=O)N1CCc2cc(-c3cnc4[nH]cc(Cl)c4c3)cc([C@@H]3COCCN3)c2C1", "HPK1 (Homo sapiens)", 168]
]}

A: Cc1c[nH]c2ncc(-c3cc4c(c([C@@H]5COCCN5)c3)CN(C(=O)N3CC5CCC(C3)N5C)CC4)cc12
B: Cc1c[nH]c2ncc(-c3cc4c(c([C@@H]5COCCN5)c3)CN(C(=O)N3C(C)COCC3C)CC4)cc12 (stereo partly shown)
C: O=C(N1CCc2cc(-c3cnc4[nH]cc(Cl)c4c3)cc([C@@H]3COCCN3)c2C1)N1CC[C@H](F)C1
(Q) Form: Sort by [IC50] Order [ ascending ] Output spec: labels arranged per the requested ranking.
(A) C, B, A

###

- EXPERIMENTAL TARGET: HPK1 (Homo sapiens)
- TEST DESCRIPTION: SLP76 phosphorylation assay (intracellular HPK1 inhibitory activity, p-SLP76 S376 ELISA in Jurkat cells)
- STATED CONDITIONS: p-SLP76 IC50, Jurkat, Clone E6-1 cells; 1 h compound pre-incubation; anti-CD3 beads stimulation 20 min; Phospho-SLP-76 (Ser376) ELISA
OBSERVED PROPERTY: IC50 (µM)

These solved cases illustrate the format of a correct answer.
{"columns": ["COMPOUND", "UNIT INFO", "ENDPOINT VALUE"],
 "data": [
  ["COC1CN(C(=O)N2CCc3cc(-c4cnc5[nH]cc(C)c5c4)cc([C@@H]4COCCN4)c3C2)C(C)(C)C1 (stereo partly shown)", "µM", 0.195],
  ["COC1CCN(C(=O)N2CCc3cc(-c4cnc5[nH]cc(Cl)c5c4)cc([C@@H]4COCCN4)c3C2)CC1", "µM", 0.246]
]}

A: CO[C@@H]1CCN(C(=O)N2CCc3cc(-c4cnc5[nH]cc(C)c5c4)cc([C@@H]4COCCN4)c3C2)C1
B: Cc1c[nH]c2ncc(-c3cc4c(c([C@@H]5COCCN5)c3)CN(C(=O)N3CCC(F)CC3)CC4)cc12
(Q) Sort A and B by IC50 descending and give the first. Answer format: the label of the selected item.
(A) A
(A: 0.329 µM, B: 0.0832 µM)

I: Cc1c[nH]c2ncc(-c3cc4c(c([C@@H]5COCCN5)c3)CN(C(=O)N3C5CCC3COC5)CC4)cc12
II: Cc1c[nH]c2ncc(-c3cc4c(c([C@@H]5COCCN5)c3)CN(C(=O)N3CC(C)OC(C)C3)CC4)cc12 (stereo partly shown)
(Q) Smaller IC50 value, I vs II ? Write the label of whichever entry you select.
(A) I
(I: 0.0957 µM, II: 0.171 µM)

###

- EXPERIMENTAL TARGET: HPK1 (Homo sapiens)
- TEST DESCRIPTION: SLP76 phosphorylation assay (intracellular HPK1 inhibitory activity, p-SLP76 S376 ELISA in Jurkat cells)
- STATED CONDITIONS: p-SLP76 IC50, Jurkat, Clone E6-1 cells; 1 h compound pre-incubation; anti-CD3 beads stimulation 20 min; Phospho-SLP-76 (Ser376) ELISA
pIC50: −log10 of the molar value.
OBSERVED PROPERTY: pIC50

Observe how each entry below is paired with its result.
{"columns": ["MOLECULE", "EXPERIMENTAL TARGET", "pIC50"],
 "data": [
  ["COc1c[nH]c2ncc(-c3cc4c(c([C@@H]5COCCN5)c3)CN(C(=O)N3CC5CCC(C3)O5)CC4)cc12", "HPK1 (Homo sapiens)", 6.67],
  ["Cc1c[nH]c2ncc(-c3cc4c(c([C@@H]5COCCN5)c3)CN(C3CCN(C)CC3)CC4)cc12", "HPK1 (Homo sapiens)", 6.71],
  ["CC1(C)CC(O)CN1C(=O)N1CCc2cc(-c3cnc4[nH]cc(Cl)c4c3)cc([C@@H]3COCCN3)c2C1 (some centres unmarked)", "HPK1 (Homo sapiens)", 7.06]
]}

a: CC1(C)CC(O)CN1C(=O)N1CCc2cc(-c3cnc4[nH]cc(Cl)c4n3)cc([C@@H]3COCCN3)c2C1 (some centres unmarked)
b: Cc1c[nH]c2ncc(-c3cc4c(c([C@@H]5COCCN5)c3)CN(C(=O)N3CC(O)CC3(C)C)CC4)cc12 (some centres unmarked)
c: Cc1n[nH]c2ncc(-c3cc4c(c([C@@H]5COCCN5)c3)CN(C(=O)C(C)(C)O)CC4)cc12
d: CCc1c(Cl)[nH]c2ncc(-c3cc4c(c([C@@H]5COCCN5)c3)CN(C(=O)C(C)(C)O)CC4)cc12
(Q) Returns the items ordered by pIC50, from maximum to minimum. Give the order by naming the labels one after another as requested.
(A) b, a, d, c
(b: 7.11, a: 6.81, d: 6.46, c: 5.35)

I: Cc1c[nH]c2ncc(-c3cc4c(c([C@@H]5COCCN5)c3)CN(C(=O)c3cnn(C5CC5)c3)CC4)cc12
II: CC(C)(O)C(=O)N1CCc2cc(-c3cnc4[nH]cc(Cl)c4c3)cc([C@@H]3CCCN3)c2C1
III: O=C(N1CCOCC1)N1CCc2cc(-c3cnc4[nH]cc(Cl)c4n3)cc([C@@H]3COCCN3)c2C1
(Q) Please list these molecules in decreasing order of pIC50. Reply: labels, ordered per the request.
(A) II, III, I
(II: 7.20, III: 6.79, I: 6.50)

###

- EXPERIMENTAL TARGET: HPK1 (Homo sapiens, UniProt Q92918)
- TEST DESCRIPTION: HPK1 kinase activity assay (ADP-Glo)
- STATED CONDITIONS: HPK1 Kinase activity IC50, ADP-Glo; 1 nM HPK1, 10 μM ATP, 0.1 μg/μL MBP
OBSERVED PROPERTY: IC50 (nM)

{"columns": ["COMPOUND", "ENDPOINT VALUE"],
 "data": [
  ["CC(C)c1c[nH]c2ncc(-c3cc4c(c([C@@H]5CCCN5)c3)CN(C(=O)C(C)(C)O)CC4)cc12 [Compound Z416]", 0.29]
]}

a: Cc1c[nH]c2ncc(-c3cc4c(c([C@@H]5COCCN5)c3)CN(C(=O)N3C5CCC3COC5)CC4)cc12 [Compound Z492]
b: Cc1c[nH]c2ncc(-c3cc4c(c([C@@H]5COCCN5)c3)CN(C(=O)C3CCOCC3)CC4)cc12 [Compound Z375]
c: Cc1c[nH]c2ncc(-c3cc4c(c([C@@H]5COCCN5)c3)CN(C(=O)N3CC5CCC(C3)O5)CC4)cc12 [Compound Z451]
(Q) Order field: IC50 | Direction: descending (largest first) Provide your answer as the labels ordered per the instruction.
(A) b, a, c

###

- EXPERIMENTAL TARGET: HPK1 (Homo sapiens, UniProt Q92918)
- Sequence (Q92918 1-346): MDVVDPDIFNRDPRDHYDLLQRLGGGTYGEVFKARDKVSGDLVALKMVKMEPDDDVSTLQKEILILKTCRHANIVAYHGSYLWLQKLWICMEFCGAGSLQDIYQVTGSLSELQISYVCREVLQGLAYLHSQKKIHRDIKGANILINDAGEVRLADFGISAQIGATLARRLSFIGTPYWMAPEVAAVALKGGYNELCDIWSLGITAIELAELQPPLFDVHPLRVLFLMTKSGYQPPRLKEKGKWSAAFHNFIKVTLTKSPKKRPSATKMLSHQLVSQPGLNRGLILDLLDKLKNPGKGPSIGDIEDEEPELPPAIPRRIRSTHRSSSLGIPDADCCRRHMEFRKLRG
- TEST DESCRIPTION: HPK1 kinase activity assay (ADP-Glo)
- STATED CONDITIONS: HPK1 Kinase activity IC50, ADP-Glo; 1 nM HPK1, 10 μM ATP, 0.1 μg/μL MBP
pIC50: −log10 of the molar value.
OBSERVED PROPERTY: pIC50

Some solved cases for reference:
{"columns": ["MOLECULE", "ENDPOINT VALUE"],
 "data": [
  ["Cc1c[nH]c2ncc(-c3cc4c(c([C@@H]5COCCN5)c3)CN(C(=O)N3CCC(F)CC3)CC4)cc12", 9.60],
  ["O=C(N1CCc2cc(-c3cnc4[nH]cc(Cl)c4n3)cc([C@@H]3COCCN3)c2C1)N1C2CCC1COC2", 9.31]
]}

1: O=C(N1CCc2cc(-c3cnc4[nH]cc(Cl)c4c3)cc([C@@H]3COCCN3)c2C1)N1CC2CCC(C1)O2
2: CCc1c(Cl)[nH]c2ncc(-c3cc4c(c([C@@H]5CCCN5)c3)CN(C(=O)COC)CC4)cc12
3: Cc1c[nH]c2ncc(-c3cc4c(c([C@@H]5COCCN5)c3)CN(C(=O)C(C)(C)O)CC4)nc12
(Q) Arrange these 3 molecules in increasing order of pIC50. Hello, could you send the labels back in the order asked? Thank you.
(A) 2, 3, 1
(2: 8.95, 3: 9.37, 1: 9.74)
